# credit: the supplement of paper PMC10567573

B1: ATL3 (parent)
chain: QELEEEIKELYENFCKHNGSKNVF

variants of: B1; experiment: protein stability index of a GFP-peptide fusion (GPS, HEK-293T) (PSI 1-6); higher = more stable; details: c terminus: a fixed tail appended;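 note: lentivirally expressed fusions sorted by FACS into six bins by GFP to DsRed ratio, PSI derived from sequencing read proportions per bin multiplied by bin number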
# if value of protein stability index reaches 3, tag t; if it stays below, tag f

Recorded results for 5 variants are shown here.
INSERT INTO assay_data (query_sequence, label_class) VALUES
  ('QELEEEIKELYENPCKHNGSKNVF', 't'),
  ('QELEEEIKELYENFCKHNGCKNVF', 'f'),
  ('QELEEEIKELYENFCKHNHSKNVF', 'f'),
  ('QELEEEIKELYENFCKHNGSKNVT', 't'),
  ('QELEEEIKELYENFCKTNGSKNVF', 'f');

Decide: protein stability index of QELEEEIKELYENFCKHNGSKNVS >= 3?
t

Decide: protein stability index of QELEEEIKELYENFCVHNGSKNVF >= 3?
t

Decide: protein stability index of QELEEEIKEIYENFCKHNGSKNVF >= 3?
t

Decide: protein stability index of QHLEEEIKELYENFCKHNGSKNVF >= 3?
f

Decide: protein stability index of QELEEEIKELYENFMKHNGSKNVF >= 3?
f

Decide: protein stability index of QELEEEIKELYENFCKHNGGKNVF >= 3?
f

Decide: protein stability index of QELEEEIKELYENFCKHNGSYNVF >= 3?
f

Decide: protein stability index of QELEEEIKEGYENFCKHNGSKNVF >= 3?
t

Decide: protein stability index of QELEEEIKELYENFKKHNGSKNVF >= 3?
t
